assay_comment: in vitro
condition_summary: bovine α-chymotrypsin (50 nM), pH 7.5
Where a SMILES comes first, the peptide text is derived from it. The star is where a group is joined. 5FAM = O=C1OC2(c3ccc(O)cc3Oc3cc(O)ccc32)c2ccc(C(=O)*)cc21; βAla = NCCC(=O)O
quantity_kind: half-life at 50 μM (min)
The reply should contain only the number, in min.

Problem: Report half-life at 50 μM for CC(C)C[C@H](NC(=O)[C@H](CC(C)C)NC(=O)[C@H](CCC(=O)O)NC(=O)[C@H](CCC(N)=O)NC(=O)[C@H](CC(C)C)NC(=O)[C@@H](NC(=O)[C@H](CC(C)C)NC(=O)[C@H](CCC(=O)O)NC(=O)[C@H](C)NC(=O)[C@H](C)NC(=O)[C@H](C)NC(=O)CCNC(=O)c1ccc2c(c1)C(=O)OC21c2ccc(O)cc2Oc2cc(O)ccc21)[C@@H](C)O)C(=O)NCC(N)=O [compound 1] ({5FAM-βAla}-AAAELTLQELLG-NH2) please.
Result: 47

###

Where a SMILES comes first, the peptide text is derived from it. Bridges are numbered along the chain shown (N, C = ends). [ ]: non-standard residue; d: D form. The star is where a group is joined. 5FAM = O=C1OC2(c3ccc(O)cc3Oc3cc(O)ccc32)c2ccc(C(=O)*)cc21; R8 = C=CCCCCCC[C@@](C)(N)C(=O)O; S5 = C=CCCC[C@](C)(N)C(=O)O; βAla = NCCC(=O)O
quantity_kind: Kd

Problem: Find Kd (UniProt:P03126) for the entry CC(C)C[C@H](NC(=O)[C@H](CC(C)C)NC(=O)[C@H](CCC(=O)O)NC(=O)[C@H](CCC(N)=O)NC(=O)[C@H](CC(C)C)NC(=O)[C@@H](NC(=O)[C@]1(C)CCCC=CCCC[C@](C)(NC(=O)CCNC(=O)c2ccc3c(c2)C(=O)OC32c3ccc(O)cc3Oc3cc(O)ccc32)C(=O)N[C@@H](C)C(=O)N[C@@H](C)C(=O)N[C@@H](CCC(=O)O)C(=O)N1)[C@@H](C)O)C(=O)NCC(N)=O [compound 5] ({5FAM-βAla}-[S5]AAE[S5]TLQELLG-NH2; staple 1-5)
Sequence (P03126 whole entry): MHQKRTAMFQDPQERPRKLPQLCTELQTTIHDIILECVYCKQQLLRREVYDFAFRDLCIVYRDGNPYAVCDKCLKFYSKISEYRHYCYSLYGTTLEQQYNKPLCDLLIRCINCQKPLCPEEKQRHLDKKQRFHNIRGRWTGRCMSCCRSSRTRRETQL
Result: < 1 µM

Problem: Find Kd (UniProt:P03126) for the entry CC(C)C[C@H](NC(=O)[C@H](CC(C)C)NC(=O)[C@H](CCC(=O)O)NC(=O)[C@]1(C)CCCC=CCCC[C@](C)(NC(=O)[C@H](C)NC(=O)[C@H](C)NC(=O)[C@H](C)NC(=O)CCNC(=O)c2ccc3c(c2)C(=O)OC32c3ccc(O)cc3Oc3cc(O)ccc32)C(=O)N[C@@H](CC(C)C)C(=O)N[C@@H]([C@@H](C)O)C(=O)N[C@@H](CC(C)C)C(=O)N1)C(=O)NCC(N)=O [compound 6] ({5FAM-βAla}-AAA[S5]LTL[S5]ELLG-NH2; staple 4-8)
Result: ≥ 38 µM

Problem: Find Kd (UniProt:P03126) for the entry CC(C)C[C@H](NC(=O)[C@H](CC(C)C)NC(=O)[C@H](CCC(=O)O)NC(=O)[C@H](CCC(N)=O)NC(=O)[C@H](CC(C)C)NC(=O)[C@@H](NC(=O)[C@H](CC(C)C)NC(=O)[C@H](CCC(=O)O)NC(=O)[C@H](C)NC(=O)[C@H](C)NC(=O)[C@H](C)NC(=O)CCNC(=O)c1ccc2c(c1)C(=O)OC21c2ccc(O)cc2Oc2cc(O)ccc21)[C@@H](C)O)C(=O)NCC(N)=O [compound 1] ({5FAM-βAla}-AAAELTLQELLG-NH2)
Result: 2.59 µM

Problem: Find Kd (UniProt:P03126) for the entry CC(C)C[C@H](NC(=O)[C@H](CC(C)C)NC(=O)[C@]1(C)CCCC=CCCC[C@](C)(NC(=O)[C@H](CCC(=O)O)NC(=O)[C@H](C)NC(=O)[C@H](C)NC(=O)[C@H](C)NC(=O)CCNC(=O)c2ccc3c(c2)C(=O)OC32c3ccc(O)cc3Oc3cc(O)ccc32)C(=O)N[C@@H]([C@@H](C)O)C(=O)N[C@@H](CC(C)C)C(=O)N[C@@H](CCC(N)=O)C(=O)N1)C(=O)NCC(N)=O [compound 7] ({5FAM-βAla}-AAAE[S5]TLQ[S5]LLG-NH2; staple 5-9)
Result: 3 µM

Problem: Find Kd (UniProt:P03126) for the entry CC(C)C[C@H](NC(=O)[C@H](CC(C)C)NC(=O)[C@]1(C)CCCC=CCCCCCC[C@@](C)(NC(=O)[C@H](C)NC(=O)CCNC(=O)c2ccc3c(c2)C(=O)OC32c3ccc(O)cc3Oc3cc(O)ccc32)C(=O)N[C@@H](C)C(=O)N[C@@H](CCC(=O)O)C(=O)N[C@@H](CC(C)C)C(=O)N[C@@H]([C@@H](C)O)C(=O)N[C@@H](CC(C)C)C(=O)N[C@@H](CCC(N)=O)C(=O)N1)C(=O)NCC(N)=O [compound 10] ({5FAM-βAla}-A[R8]AELTLQ[S5]LLG-NH2; staple 2-9)
Result: > 38 µM

Values were extracted from paper PMC11934087.
